Measure name: melting point

>>> reported("CCS(=O)(=O)c1cc(OC(F)F)cnc1-c1nc2cc(C(F)(F)F)ncc2n1C")
"146 to 148 °C"
>>> reported("CCS(=O)(=O)c1nc(C(F)(F)F)sc1-c1cn2ccc(C(F)(F)F)cc2n1")
"126 to 128 °C"
>>> reported("CCS(=O)(=O)c1nsnc1-c1nc2cc(C(F)(F)F)cnc2n1C")
"144 to 146 °C"
>>> reported("CC1Cc2c(C(F)(F)F)ccc(-c3nc4cc(C(F)(F)F)cnc4n3C)c2S1(=O)=O (stereo not drawn)")
"206 °C"
>>> reported("CCS(=O)(=O)c1nc(C(F)(F)F)ccc1-c1cn2ccc(C(F)(F)F)cc2n1")
"188 to 190 °C"
>>> reported("CCS(=O)(=O)c1cc(C(F)(F)F)nnc1-c1nc2cc(C(F)(F)F)cnc2n1C")
"172 to 174 °C"
>>> reported("CCS(=O)(=O)c1nc(C(F)(F)F)ccc1-c1nc2cc3nc(C(F)(F)F)n(C)c3nc2n1C")
"197 to 199 °C"
>>> reported("CCS(=O)(=O)c1cc(C(F)(F)F)cnc1-c1nc2nc(C(F)(F)F)cnc2n1C")
"162 to 165 °C"
>>> reported("CCSc1cc(C(F)(F)F)cnc1-c1nc2cc(Cl)nnc2n1C")
"156 to 158 °C"
